assay: chemical genetic growth profiling, strain panel (AID 1159580);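 also: tested at 20 µM; growth read once vehicle control cultures reached saturation at 30 °C; 1 = growth at the plate median or of vehicle wells; lower values mean less growth of the strain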; conditions: S. cerevisiae deletion strains, growth OD, locus YPR163C, strain tif3, stronger effect = lower value
About 2,000 (36%) of roughly 5,500 compounds were called active. Another 18% or so got no clear call; they are omitted. Some of the results follow.
normalized growth listing for selected compounds.
QUANTITY_KIND: normalized growth

CC(C)/C(O)=C1/C(=O)O[C@@H](c2ccoc2)[C@]2(C)C(O)[C@@H](O)[C@@]34OC5(C)OC67CC(C)(C(O)[C@]6(O)[C@@H](O)[C@]3(O5)C12)[C@H](CC(=O)O)[C@]74C (some centres not stated) | 1.01
Cc1cc(CC(=O)O)n(C)c1C(=O)c1ccc(Cl)cc1 | 1.01
O=C(O)CCC1NCC2CC1CN1CCCCC21 (configuration not stated) | 0.983
CCCCCCCCCCCC(=O)OCC(COP(=O)(O)OCC(O)COP(=O)(O)OCC(COC(=O)CCCCCCCCCCC)OC(=O)CCCCCCCCCCC)OC(=O)CCCCCCCCCCC (configuration not stated) | 1.02
CC(=O)C1CC[C@H]2C3CC[C@H]4C[C@H](O)CC[C@]4(C)C3CC[C@]12C (some centres not stated) | 0.99
Fc1ccc([C@@H]2CCNC[C@H]2COc2ccc3c(c2)OCO3)cc1 | 1
Cc1nnc(NS(=O)(=O)c2ccc(N)cc2)s1 | 0.992

Each recorded value in this set is attributed to PubChem BioAssay AID1159580.
